target: PI3K catalytic subunit gamma; assay: Inhibition of P13Kgamma (unknown origin) in the presence of ATP by scintillation proximity assay
Property name: IC50

                              line_notation         target_or_test_system  test_value
0  Cc1cc(S(=O)(=O)N[C@H]2CC[C@H](O)CC2)ccc1-c1cnc2c(N)c(Cl)ccn12  PI3K catalytic subunit gamma    < 100 nM
1  Cc1nnc(-c2cc(-c3cc4c(c(S(C)(=O)=O)c3)C(=O)N([C@@H](C)C3CC3)C4)ccn2)[nH]1  PI3K catalytic subunit gamma    < 100 nM
2  Clc1ccc(Cn2cc(-c3ccnc(-c4ncc(-c5ccccc5)[nH]4)c3)cn2)cc1  PI3K catalytic subunit gamma     < 50 nM

###

experiment: Inhibition of Ribosomal protein S6 kinase in human THP-1 cells by ELISA analysis
pIC50: −log10 of the molar value.
Property name: pIC50

In [3]: df
Out[3]:
                                   compound  property_name  test_value
0  CC(NC(=O)c1c(N)nn2cccnc12)c1cc(Cl)c2c(C#N)ncn2c1N1CCS(=O)(=O)C(C)C1 (stereo unspecified)          pIC50      > 6.52

###

target: PI3K catalytic subunit beta; assay: Inhibition of P13Kbeta (unknown origin) in the presence of ATP by scintillation proximity assay
Property name: IC50 (nM)

                              line_notation        target_or_test_system  measure_unit  test_value
0  Cc1ncc(-c2cc(-c3ccc(S(=O)(=O)NCC(C)(C)O)cc3C)cnc2N)o1  PI3K catalytic subunit beta            nM        1700
1  Cc1cc(S(=O)(=O)N[C@H]2CC[C@H](O)CC2)ccc1-c1cnc(N)c(C(=O)C2CC2)n1  PI3K catalytic subunit beta            nM         400
